Target: T1, SulfoTyr C4 peptide (not fully specified; Y4, Y7 and Y9 sulfated (SO3); C-terminal biotin)
T1 construct: also called C4 alpha chain peptide; human sulfotyrosinylated C4 peptide
T1 peptide: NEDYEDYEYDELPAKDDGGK
Assay: ELISA, 50 nM mAb
# binding normalized to PSGL-1 annotations
Please reply with the number alone, leaving off any unit.

Consider the worked cases shown below.
Report measured binding normalized to PSGL-1; entry is 10F01 (antibody, IgG4, V domains shown) VH: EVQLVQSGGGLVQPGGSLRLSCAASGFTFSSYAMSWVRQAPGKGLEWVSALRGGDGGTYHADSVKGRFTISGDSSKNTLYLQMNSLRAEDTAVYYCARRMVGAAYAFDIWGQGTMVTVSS VL: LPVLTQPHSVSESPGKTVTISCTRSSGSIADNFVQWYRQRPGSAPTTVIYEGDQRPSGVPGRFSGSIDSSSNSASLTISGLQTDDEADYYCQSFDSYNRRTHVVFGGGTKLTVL
0.17

Write down binding normalized to PSGL-1 measured for item 02E01 (antibody, IgG4, V domains shown) VH: EVQLVQSGGGVVQPGRSLRLSCAASGFTFSRYGMHWVRQAPGKGLEWVSVISYDGNNKYYADSVKGRFTISRDNSKNTVYLQMNSLRADDTAVYYCARNVPVTNFGYWGQGTLVTVSS VL: QSALTQPASVSGSPGQSITISCTGTSSDVGGYNYVSWYQQHPGKAPKLMIYDVSKRPSGVSNRFSGSKSGNTASLTISGLQAEDEADYYCSSYTRPGRVFGGGTKLTVL
0.94

Next:
Kindly indicate its recorded binding normalized to PSGL-1. Item: 09D11 (antibody, IgG4, V domains shown) VH: QVQLVESGGGFIQPGGSLRLSCAASGLTFSNYAMTWVRQAPGKGLEWVSTISGGGGNTYYTDSVKGRFTISRDNSKNTLYLQMNSLKAEDTAVYRCAKGLAAALFDYWGQGTLVTVSS VL: DIVLTQSPDSLPVTPGEPASISCRSSRSLLHSNGHNFLAWYLQKPGQSPHLLIYLGSNRASGVPDRFSGSGSGTDFTLKISRVEAEDVGIYYCMQALQTPITFGQGTRLDIK
0.05

Item 09A02 (antibody, IgG4, V domains shown) VH: EVQLVQSGGGLVKPGGSLRLSCAASGFTFRTAWMSWVRQAPGKGLEWVGRMKSKNDGGTTDYAAPVKGRFTISRDDSRDTVYLQMNSLKTEDTGVYYCATYAAGATVPWGQGTLVTVSS VL: DIVMTQTPLSAPVTLGQPASISCRSSRSLLQRNGYNYVDWYQQKAGNPPRLLIYLGSRRASGVPDRFSGSGSDKDFTLKISRVEADDVGFYFCKQSLQAPPTFGGGTKIEIT : provide binding normalized to PSGL-1
1

Look up and report measured binding normalized to PSGL-1 for this entry: 06B02 (antibody, IgG4, V domains shown) VH: QVQLVESGPGLVKPSETLSLTCTVSGVSVSSYYWTWVRQSPGKGLEWIGHVHHSGISNYNPSLKSRVVMSVDTSKNYFSLKLRSVTAADTAVYYCARGGPRISPTNWGQGTLVTVSS VL: QPVLTQPPSVSKALRQTATLTCTGNSNNVGYQGATWLRQHQGHPPRLLSYRNNNRPSGISERFSASRSGNTATLTITGLQPDDEADYYCAAWDSSLSAWVFGGGTKLTVL
0.97

Given 05E08 (antibody, IgG4, V domains shown) VH: EVQLVQSGGGVVQPGRSLRLSCAASGFTFSTYAMHWVRQAPGKGLEWVAVISYDGSNKYYADSVKGRFTISRDNSRNTLFLQMNSLRDEDTAVYYCAKRGTMIRGERSLDFWGQGTLVTVSS VL: AIQMTQSPSFLSASVGDRVTITCRASQGINSWLAWYQQKPGTAPNLLIHAASTLQSGVPSRFSGSRSGTEFTLTISSLQPEDFATYYCQQLQSYPLTFGQGTRLEIK , respond with its binding normalized to PSGL-1.
1
